biological target: T1, hCD38-his (SEQ ID NO: 2) (human, UniProt P28907 45-300); assay: SPR, mAb captured via anti-human Fc, soluble CD38-his injected
T1 construct: His-tagged soluble protein derived from isoform A; also called human CD38-histag; hCD38::Histag
Param threshold (0.0004 s⁻¹) applies to koff; output class 1 when value >= threshold, class 0 when value < threshold.

Sample answers from the record:
binder="mAb3 (antibody, human IgG1, kappa, V domains shown, also called antiCD38_C2-CD38-1_VH3-VL3) VH: QVQLVQSGAEVVKPGASVKVSCKASGYTFTSFNMHWVKEAPGQRLEWIGYIYPGNGGTNYNQKFQGRATLTADTSASTAYMELSSLRSEDTAVYFCARTGGLRRAYFTYWGQGTLVTVSS VL: DIVLTQSPATLSLSPGERATISCRASESVDSYGNGFMHWYQQKPGQPPRLLIYLASSRATGIPARFSGSGSGTDFTLTISPLEPEDFAVYYCQQNKEDPWTFGGGTKLEIKR" assigned_label="class 0"
binder="mAb4 (antibody, human IgG1, kappa, V domains shown, also called antiCD38_C2-CD38-1_VH5-VL3) VH: QVQLVQSGAEVVKSGASVKVSCKASGYTFTSFNMHWVKEAPGQGLEWIGYIYPGNGGTNYNQKFQGRATLTADTSASTAYMEISSLRSEDTAVYFCARTGGLRRAYFTYWGQGTLVTVSS VL: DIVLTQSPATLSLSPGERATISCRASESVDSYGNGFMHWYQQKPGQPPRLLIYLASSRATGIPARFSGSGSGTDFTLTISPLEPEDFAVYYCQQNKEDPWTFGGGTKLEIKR" assigned_label="class 1"
binder="mAb1 (antibody, human IgG1, kappa, V domains shown, also called antiCD38_C2-CD38-1) VH: QVQLQQSGAELVRSGASVKMSCKASGYTFTSFNMHWVKETPGQGLEWIGYIYPGNGGTNYNQKFKGKATLTADTSSSTAYMQISSLTSEDSAVYFCARTGGLRRAYFTYWGQGTLVTVSS VL: DIVLTQSPASLAVSLGQRATISCRASESVDSYGNGFMHWYQQKPGQPPKLLIYLASNLESGVPARFSGSGSRTDFTLTIDPVEADDAATYYCQQNKEDPWTFGGGTKLEIKR" assigned_label="class 0"

Lookup: Check the entry mAb5 (antibody, human IgG1, kappa, V domains shown, also called antiCD38_C2-CD38-1_VH6-VL3) VH: QVQLVQSGAEVVKPGASVKMSCKASGYTFTSFNMHWVKEAPGQRLEWIGYIYPGNGGTNYNQKFQGRATLTADTSASTAYMEISSLRSEDTAVYFCARTGGLRRAYFTYWGQGTLVTVSS VL: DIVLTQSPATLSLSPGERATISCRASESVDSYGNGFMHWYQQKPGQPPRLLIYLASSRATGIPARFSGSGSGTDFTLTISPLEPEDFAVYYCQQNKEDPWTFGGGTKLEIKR : does koff equal or exceed 0.0004 s⁻¹?
Found: class 0
